// molecules with Ki on UniProt P30543, multi-source literature
Give the value, in units of nM, as a plain number.

Looking for the measured Ki of CCCn1c(=O)c2[nH]c(-c3ccc(OCC(=O)NCCNC(=O)CNCC(=O)O)cc3)nc2n(CCC)c1=O , can you help?
157

How about this molecule: Cn1c(=O)c2c(nc3n2CCCN3Cc2ccccc2Cl)n(C)c1=O
1240

How about this molecule: CCCCn1c(=O)c2c(nc3n2CCCN3CCc2ccc(OCC(=O)NCCN3CCCC3)cc2)n(CCCC)c1=O
455

How about this molecule: OC[C@H]1O[C@@H](n2cnc3c(NN4CCCC4)ncnc32)[C@H](O)[C@@H]1O (stereo in doubt)
2800

###

// molecules with Ki on Adenosine receptor A2a (Rattus norvegicus, UniProt P30543), multi-source literature
Sequence (P30543 whole entry): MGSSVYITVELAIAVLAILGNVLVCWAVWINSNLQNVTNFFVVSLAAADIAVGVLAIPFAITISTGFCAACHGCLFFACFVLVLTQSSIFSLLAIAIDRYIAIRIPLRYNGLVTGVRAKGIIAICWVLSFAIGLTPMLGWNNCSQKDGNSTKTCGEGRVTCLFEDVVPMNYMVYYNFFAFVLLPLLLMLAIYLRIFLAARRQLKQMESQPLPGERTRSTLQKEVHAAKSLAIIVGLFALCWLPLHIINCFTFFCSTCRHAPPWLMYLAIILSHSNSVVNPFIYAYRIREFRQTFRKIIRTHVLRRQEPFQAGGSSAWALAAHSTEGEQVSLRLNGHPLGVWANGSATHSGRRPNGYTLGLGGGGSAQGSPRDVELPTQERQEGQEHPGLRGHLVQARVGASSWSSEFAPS
Grouping rule (Ki): class 1 = under 200 nM, class 2 = from 200 nM up to 2000 nM, class 3 = 2000 nM and over

Lab note: which band did Nc1nc(C#CC(O)C2(O)CCCCC2)cn2nc(-c3ccco3)nc12 (centres undefined) land in?
class 1

How about this molecule: OC[C@H]1O[C@@H](n2cnc3c(NN4CCCCC4)nc(Cl)nc32)[C@H](O)[C@@H]1O
class 2

How about this molecule: Cc1ccc(C(=O)N[C@H]2C(CO)O[C@@H](n3cnc4c(NC5CCCC5)ncnc43)[C@@H]2O)cc1C (single isomer, unassigned)
class 3

How about this molecule: CC(C)CCC(C)(O)C#Cc1cn2nc(-c3ccco3)nc2c(N)n1 (centres undefined)
class 1

How about this molecule: Nc1cc([N+](=O)[O-])nc2c1ncn2[C@@H]1O[C@H](CO)[C@@H](O)[C@H]1O
class 2

How about this molecule: C[C@H](Cc1ccccc1)Nc1ncnc2c1ncn2[C@@H]1O[C@H](CO)C[C@H]1O
class 3

How about this molecule: CCNC(=O)[C@H]1OC(n2cnc3c(NC(=O)Nc4ccc(C(F)(F)F)cc4)ncnc32)[C@H](O)[C@@H]1O (some centres undefined)
class 3

How about this molecule: Nc1nc(NC[C@H]2CCCN2Cc2cccc(F)c2F)nc2nc(-c3ccco3)nn12
class 1

How about this molecule: Nc1ncnc2c1ncn2C1C=CC(O)C1 (centres undefined)
class 3

How about this molecule: CNc1nc(Cl)nc2c1ncn2C1OC(CO)C(F)C1O (centres undefined)
class 3

How about this molecule: CCCCCNC(=O)[C@H]1O[C@@H](n2cnc3c(N)ncnc32)[C@H](O)[C@@H]1O
class 2

How about this molecule: CCCn1c(=O)c2c(nc3n2CCCN3c2ccc(OCCN(CC)CC)cc2)n(CCC)c1=O
class 2

How about this molecule: COc1ccc(-c2cnn(-c3nc(N)c4ncn([C@@H]5O[C@H](CO)[C@@H](O)[C@H]5O)c4n3)c2)cc1
class 1

How about this molecule: Nc1cc(NC[C@H]2CCCN2Cc2ccncc2)nc2nc(-c3ccco3)nn12
class 1

How about this molecule: CCC1CN2C(=O)N(C)c3nc(-c4ccccc4)n(C)c3C2=N1 (centres undefined)
class 3

How about this molecule: OCCn1ncc2c1nc(NCc1ccccc1)n1nc(-c3ccco3)nc21
class 1

How about this molecule: Cn1c(=O)c2c(nc3n2CCCN3Cc2ccc(F)cc2)n(C)c1=O
class 3

How about this molecule: COc1ccc(CC(=O)Nc2nc(SC)nc3nc(-c4ccco4)nn23)cc1
class 2

###

// compounds with pKi on Adenosine receptor A2a (Rattus norvegicus), multi-source literature
Worth noting: pKi values are minus log10 of concentrations stated in mol/L.

Recorded pKi for CC(C)(C)OC(=O)N1[C@H]2CC[C@H]1[C@H](Nc1ncnc3c1ncn3[C@@H]1O[C@H](CO)[C@@H](O)[C@H]1O)C2 with Adenosine receptor A2a (Rattus norvegicus), please?
4.46

How about this compound: CCNC(=O)c1cnn(-c2nc(N)c3ncn([C@@H]4O[C@H](CO)[C@@H](O)[C@H]4O)c3n2)c1
7.22

How about this compound: Cc1cccc(CCOc2nc(N)c3ncn(C4O[C@H](CO)[C@@H](O)[C@H]4O)c3n2)c1 (some centres undefined)
7.21

How about this compound: CCCN1C(=O)N2C[C@@H](C(C)C)N=C2c2[nH]c(C34CCC(O)(CC3)CC4)nc21
5.96

How about this compound: COc1ccc(CC(=O)Nc2nc(N(C)C)nc3nc(-c4ccco4)nn23)cc1
4.99

How about this compound: COc1cccc(-c2cc3nc(-c4ccco4)nn3c(N)n2)c1
8.30

How about this compound: CCNC(=O)[C@H]1O[C@@H](n2cnc3c(NC(=O)Nc4cccc(F)c4)ncnc32)[C@H](O)[C@@H]1O
6.21

How about this compound: Nc1nc(N/N=C/C=C/c2ccccc2)nc2c1ncn2[C@@H]1O[C@H](CO)[C@@H](O)[C@H]1O
7.42

How about this compound: CN1CCN(CC(=O)Nc2cc(-n3cccn3)nc(-c3ccco3)n2)CC1
7.59

How about this compound: CCC(Sc1nc(N)c2cnn(-c3ccccc3)c2n1)C(N)=O (centres undefined)
7.35

How about this compound: COc1cccc(OC)c1-c1cc2nc(-c3ccco3)nn2c(N)n1
5.77

How about this compound: Nc1nc(OCCc2ccccc2Cl)nc2c1ncn2C1O[C@H](CO)[C@@H](O)[C@H]1O (some centres undefined)
7.25

How about this compound: Nc1ncnc2c1ncn2[C@@H]1O[C@H](C(=O)NC2CCCC2)[C@@H](O)[C@H]1O
6.21

How about this compound: CCCCn1c(=O)c2c(nc3n2CCCN3c2ccc(OCCN(CC)CC)cc2)n(CCCC)c1=O
5.84

###

// compounds with log10 of Ki on UniProt P30543, multi-source literature
Response schema: value (number) is log10 of Ki in units of nM.

Recorded log10 of Ki for Cn1nc(OCC#Cc2cn3nc(-c4ccco4)nc3c(N)n2)cc1C(F)(F)F with UniProt P30543, please?
1.95

How about this compound: CCCOC(=O)c1c(-c2ccccc2)nc(CC)c2c1CCSC2=O
4.83

How about this compound: CCNC(=O)[C@H]1O[C@@H](n2cnc3c(N)nc(C#Cc4ccccc4)nc32)[C@H](O)[C@@H]1O
2.08

How about this compound: CCCn1c(=O)c2c(nc3n2CCCN3CCc2ccc(OCC(=O)NCCCN3CCCC3)cc2)n(CCC)c1=O
2.51

How about this compound: COc1cc(-c2cc3nc(-c4ccco4)nn3c(N)n2)cc(OC)c1OC
0.65

How about this compound: CCCCn1c(=O)c2c(ncn2C2O[C@H](C(N)=O)[C@@H](O)[C@H]2O)n(CCCC)c1=O (stereo not given in full)
4.74

How about this compound: OC[C@H]1O[C@@H](n2cnc3c(NC4CCCCC4)nc(Cl)nc32)[C@H](O)[C@@H]1O
2.77

How about this compound: CCO/C(O)=C1\C(C)=NC(C)=C(C(=O)OC)C1CC (stereo not given)
3.90

How about this compound: CSc1sccc1CN1CCN(c2nc(N)n3nc(-c4ccco4)nc3n2)CC1
1.54

How about this compound: C[C@H](Cc1ccccc1)Nc1ncnc2c1ncn2[C@@H]1O[C@H](CO)[C@@H](O)[C@@]1(C)O
3.87

How about this compound: Cn1c(=O)c2c(nc3n2CCN(CCOc2ccc(Cl)c(Cl)c2)C3)n(C)c1=O
3.38

How about this compound: C[C@H](Nc1nc(N)c2cnn(-c3ccccc3)c2n1)C(N)=O
2.81

How about this compound: Nc1nc(-c2cccc(CN3CCN(c4ccccc4)CC3)c2)cc2nc(-c3ccco3)nn12
0.66

How about this compound: CCCCn1c(=O)c2nc(/C=C/C(=O)O)[nH]c2n(CCCC)c1=O
4.22

How about this compound: C=CCSc1nc(N)c2ncn([C@@H]3O[C@H](CO)[C@@H](O)[C@H]3O)c2n1
3.18

How about this compound: C=CCn1c(=O)c2c(nc(-c3ccccc3)n2C)n(C)c1=O
4.37

###

// compounds with Ki on Adenosine receptor A2a (Rattus norvegicus, UniProt P30543), multi-source literature
Give the value, in units of nM, as a plain number.

Looking for the measured Ki of CC(=O)N1CCN(CC(=O)Nc2cc(-n3nc(C)cc3C)nc(-c3ccc(C)o3)n2)CC1 , can you help?
170

How about this compound: Nc1cc(NC[C@H]2CCCN2Cc2c(Cl)cncc2Cl)nc2nc(-c3ccco3)nn12
397

How about this compound: CC(C)(C)OC(=O)NCCCC(=O)Nc1nc2ccc(Cl)cc2c2nc(-c3ccco3)nn12
135

How about this compound: CCCOc1nc(N)c2ncn(C3O[C@H](CO)[C@@H](O)[C@H]3O)c2n1 (stereo not given in full)
360

How about this compound: C=CCn1c(-c2ccc(C(F)(F)F)cc2)nc2c1c(=O)n(CCC)c(=O)n2CCC
4200
